meta.source: patent US20140112930A1

# Target Under Test: T1, wild-type human Ang-2 (hAng-2-WT) (human, UniProt O15123 19-496)
# T1 construct: called full-length wild-type; also called Full-length wild-type human Ang-2
# T1 sequence: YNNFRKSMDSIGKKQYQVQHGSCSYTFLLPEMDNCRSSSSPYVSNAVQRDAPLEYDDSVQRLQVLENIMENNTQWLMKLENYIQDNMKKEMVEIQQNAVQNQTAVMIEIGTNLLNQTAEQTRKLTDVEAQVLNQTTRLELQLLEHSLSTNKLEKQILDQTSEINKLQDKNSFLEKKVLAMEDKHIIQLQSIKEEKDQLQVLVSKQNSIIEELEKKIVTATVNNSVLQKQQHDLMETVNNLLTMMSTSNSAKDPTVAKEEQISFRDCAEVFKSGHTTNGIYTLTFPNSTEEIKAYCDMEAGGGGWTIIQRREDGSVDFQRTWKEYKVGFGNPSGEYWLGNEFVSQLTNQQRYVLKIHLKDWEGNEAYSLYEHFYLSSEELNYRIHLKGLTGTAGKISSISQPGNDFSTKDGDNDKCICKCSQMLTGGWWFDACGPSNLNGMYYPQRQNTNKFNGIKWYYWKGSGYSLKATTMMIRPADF
# Assay Explanation: SPR, captured Ab
Measure: pKd
Quick note: pKd values are minus log10 of concentrations in mol/L.

Illustrative cases are given below, each with its answer.
H1H744N (antibody, V domains shown) VH: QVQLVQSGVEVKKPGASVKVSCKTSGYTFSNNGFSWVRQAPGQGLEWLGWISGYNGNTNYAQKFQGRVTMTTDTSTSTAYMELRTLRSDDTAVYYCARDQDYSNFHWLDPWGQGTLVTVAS VL: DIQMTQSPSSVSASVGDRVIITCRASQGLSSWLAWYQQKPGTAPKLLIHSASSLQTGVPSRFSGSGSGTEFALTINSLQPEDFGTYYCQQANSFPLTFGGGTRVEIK = 10.51
H2M749N (antibody, V domains shown, also called H1M749N; H1M749) VH: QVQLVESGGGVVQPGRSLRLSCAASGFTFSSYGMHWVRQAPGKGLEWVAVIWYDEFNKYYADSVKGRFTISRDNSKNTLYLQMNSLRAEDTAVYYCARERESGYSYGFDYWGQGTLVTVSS VL: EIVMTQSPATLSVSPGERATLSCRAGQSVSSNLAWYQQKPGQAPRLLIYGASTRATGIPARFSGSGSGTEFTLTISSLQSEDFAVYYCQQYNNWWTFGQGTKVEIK = 10.31

Notebook: H2M742N (antibody, V domains shown) VH: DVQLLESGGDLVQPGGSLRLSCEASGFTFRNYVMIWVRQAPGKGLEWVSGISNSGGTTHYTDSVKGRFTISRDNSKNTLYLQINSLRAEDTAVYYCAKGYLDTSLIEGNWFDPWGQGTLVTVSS VL: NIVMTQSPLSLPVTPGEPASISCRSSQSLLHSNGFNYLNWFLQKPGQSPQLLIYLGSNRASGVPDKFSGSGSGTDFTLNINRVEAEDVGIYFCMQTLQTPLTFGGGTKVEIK , pKd read as 10.17
